Provenance of the data: paper PMC11513920

- Experiment: HepaRG cellular metabolic stability
- Run Conditions: human, other cell line, HepaRG t1/2, after 3 h loading at 20 μM, 37 °C
Kindly supply the reported half-life at 20 μM values for the records listed here.

half-life at 20 μM measured on C[C@H](Cn1cnc2c(N)ncnc21)OCP(=O)(O)OCCCSCCCCCCCCCCCCC1CCCCC1.N [16h] = 1.12 to 1.18 h

half-life at 20 μM measured on C[C@H](Cn1cnc2c(N)ncnc21)OCP(=O)(O)OCCCOCCCCCCCCCCCCCCCC(F)(F)F.N [compound 1] = 0.717 to 0.733 h

half-life at 20 μM measured on C[C@H](Cn1cnc2c(N)ncnc21)OCP(=O)(O)OCCCSCCCCCCCCCCCCC#CC(C)(C)C.N [15e] = 1.12 to 1.18 h
